Hello, the source for this data is patent US20260174875A1, in case you need it.

// reported hGIPR Potency, no HSA, EC50 [pM] for each item listed
Biological target: T1, human GIP receptor (human, UniProt P48546 22-466)
T1 sequence (looked up): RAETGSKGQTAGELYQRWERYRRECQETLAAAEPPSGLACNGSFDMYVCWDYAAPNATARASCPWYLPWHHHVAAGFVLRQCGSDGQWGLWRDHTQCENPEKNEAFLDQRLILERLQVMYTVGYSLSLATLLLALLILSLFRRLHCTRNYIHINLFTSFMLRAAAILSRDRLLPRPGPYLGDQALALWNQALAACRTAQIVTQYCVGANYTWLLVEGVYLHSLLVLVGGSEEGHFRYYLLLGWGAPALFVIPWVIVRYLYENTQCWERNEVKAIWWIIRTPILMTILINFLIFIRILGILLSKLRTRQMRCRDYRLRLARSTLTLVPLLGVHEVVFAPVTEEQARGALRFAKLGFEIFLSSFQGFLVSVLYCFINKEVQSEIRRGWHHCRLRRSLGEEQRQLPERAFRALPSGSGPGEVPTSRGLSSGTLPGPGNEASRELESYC
Assay: cell-based or functional assay
Numbered stars: 1 amine (or outer) side, 2 acyl side, 3 side chain; on linkers, the order of the positions; unused ones are H or OH. Square brackets hold non-standard residues; d marks the D form. Side chains are listed from the residue outwards. * marks the point of attachment. C20 diacid = O=C(O)CCCCCCCCCCCCCCCCCCC(=O)*; γGlu = O=C(O)[C@H](CCC(=O)[*:2])N[*:1]; Chem. 27 = not defined here; AEEA = NCCOCCOCC(=O)O; Aib = CC(C)(N)C(=O)O
Report only the number, with the unit pM understood.

Use these answered entries as a reference point.
Binder	hGIPR Potency, no HSA, EC50 [pM] [pM]
Compound 179 (reading uncertain) peptide: Y[Aib]EGTFTSDYSILLEEIAAREFIEWLLAGGPSSGAGASHLSTAQTQRLSAELHK(Chem. 27)LATEPRTETGSGSP-NH2	4.36
Compound 176 (reading uncertain) peptide: Y[Aib]EGTFTSDYSILLEEIAAREFIEWLLAGGPSSGAGASELSTAQTQRLSAELHK(Chem. 27)LATLPRTETGSGSP-NH2	3.66
Compound 181 (reading uncertain) peptide: Y[Aib]EGTFTSDYSILLEEIAAREFIEWLLAGGPSSEAGASQLSTAQTQRLSAELHK(Chem. 27)LATLPRTETGSGSP-NH2	3.25

// next item, hGIPR Potency, no HSA, EC50 [pM] requested
Please report the recorded hGIPR Potency, no HSA, EC50 [pM] for Compound 115 (peptide) peptide: Y[Aib]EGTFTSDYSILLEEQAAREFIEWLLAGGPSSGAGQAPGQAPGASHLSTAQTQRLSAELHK([AEEA-AEEA-γGlu-C20 diacid])LATLPRTETGSGSP-NH2 .
10.3
